# method: log P determination by HPLC on reversed-phase columns (EEC Directive 79/831 Annex V.A8)
# Assay type: physicochemical
# condition: pH 2.7
# Protocol: Determination by LC-MS in the acidic range takes place at a pH of 2.7 using 0.1% aqueous formic acid and acetonitrile (containing 0.1% formic acid) as eluents, with a linear gradient from 10% acetonitrile to 95% acetonitrile. Calibration was carried out using unbranched alkan-2-ones (having 3 to 16 carbon atoms) with known log P values (the log P values are determined from the retention times by linear interpolation between two successive alkanones).
Recorded chromatographic logP, one value per entry.

- smiles-record: "Cc1cc(I)cc(C(=O)NC(C)C)c1NC(=O)c1cc(Cn2ncc(C(F)(F)F)n2)nn1-c1ncccc1Cl"
  chromatographic logP: 3.73
- smiles-record: "Cc1cc(C#N)cc(C(N)=O)c1NC(=O)c1cc(Cn2cc(-c3ccc(C(F)(F)F)cc3)nn2)nn1-c1ncccc1Cl"
  chromatographic logP: 2.81
- smiles-record: "CNC(=O)c1cc(Cl)cc(C)c1NC(=O)c1cc(Cn2nc3ccc(Br)cc3n2)nn1-c1ncccc1Cl"
  chromatographic logP: 3.39
- smiles-record: "Cc1cc(C#N)cc(C(=O)NCC#N)c1NC(=O)c1cc(Cn2cc(C(F)(F)F)nn2)nn1-c1ncccc1Cl"
  chromatographic logP: 2.32
- smiles-record: "Cc1cc(C#N)cc(C(=O)NC(C)(C)C)c1NC(=O)c1cc(Cn2cc(C(C)(C)C)nn2)nn1-c1ncccc1Cl"
  chromatographic logP: 3.02
- smiles-record: "Cc1cc(I)cc(C(=O)NC(C)C)c1NC(=O)c1cc(Cn2ncc(C(F)(C(F)(F)F)C(F)(F)F)n2)nn1-c1ncccc1Cl"
  chromatographic logP: 4.51
- smiles-record: "Cc1cc(Cl)cc(C(=O)NCC2CC2)c1NC(=O)c1cc(Cn2ncc(C(F)(F)C(F)(F)F)n2)nn1-c1ncccc1Cl"
  chromatographic logP: 3.96

====

# method: log P determination by HPLC on reversed-phase columns (EEC Directive 79/831 Annex V.A8)
# Format: physicochemical
# condition: pH 2.7
Rule: rule met for chromatographic logP not less than 4, rule not met for anything less.

- molecule: "CNC(=O)c1cc(Cl)cc(Cl)c1NC(=O)c1cc(Cn2cc(C(F)(C(F)(F)F)C(F)(F)F)nn2)nn1-c1ncccc1Cl"
  class-label: "rule not met"
- molecule: "O=C(NC1CC1)c1cc(Cl)cc(Cl)c1NC(=O)c1cc(Cn2cc(C(F)(C(F)(F)F)C(F)(F)F)nn2)nn1-c1ncccc1Cl"
  class-label: "rule not met"
- molecule: "Cc1cc(Cl)cc(C(=O)NC(C)C2CC2)c1NC(=O)c1cc(Cn2cc(C(F)(F)F)nn2)nn1-c1ncccc1Cl (stereo not drawn)"
  class-label: "rule not met"
- molecule: "CSC[C@H](C)NC(=O)c1cc(Cl)cc(C)c1NC(=O)c1cc(Cn2nc(C(F)(F)F)c(C(F)(F)F)n2)nn1-c1ncccc1Cl"
  class-label: "rule met"

====

# method: log P determination by HPLC on reversed-phase columns (EEC Directive 79/831 Annex V.A8)
# Assay type: physicochemical
# condition: pH 2.7

- smiles-record: "CNC(=O)c1cc(Cl)cc(C)c1NC(=O)c1cc(Cn2ncc(-c3cccc(Cl)c3)n2)nn1-c1ncccc1Cl"
  chromatographic logP: 3.63
- smiles-record: "Cc1cc(I)cc(C(=O)NCC#N)c1NC(=O)c1cc(Cn2ncc(C(F)(F)F)n2)nn1-c1ncccc1Cl"
  chromatographic logP: 3.11
- smiles-record: "CNC(=O)c1cc(Cl)cc(C)c1NC(=O)c1cc(Cn2nnc3c(Cl)cc(C(F)(F)F)cc32)nn1-c1ncccc1Cl"
  chromatographic logP: 3.59
- smiles-record: "Cc1cc(Cl)cc(C(=O)NC2CC2)c1NC(=O)c1cc(Cn2cc(C(F)(F)F)nn2)nn1-c1ncccc1Cl"
  chromatographic logP: 2.82
- smiles-record: "Cc1cc(I)cc(C(N)=O)c1NC(=O)c1cc(Cn2nc(C(F)(F)F)c(C(F)(F)F)n2)nn1-c1ncccc1Cl"
  chromatographic logP: 3.67
- smiles-record: "Cc1cc(C#N)cc(C(=O)NC(C)C)c1NC(=O)c1cc(Cn2ncc(C(F)(F)F)n2)nn1-c1ncccc1Cl"
  chromatographic logP: 3.1
- smiles-record: "CNC(=O)c1cc(Cl)cc(C)c1NC(=O)c1cc(Cn2ncc(C(F)(F)C(F)(F)F)n2)nn1-c1ncccc1Cl"
  chromatographic logP: 3.4

====

# method: log P determination by HPLC on reversed-phase columns (EEC Directive 79/831 Annex V.A8)
# Type: physicochemical
# condition: pH 2.7
chromatographic logP by entry:

- compound: "NC(=O)c1cc(Cl)cc(Cl)c1NC(=O)c1cc(Cn2cc(C(F)(F)F)nn2)nn1-c1ncccc1Cl [Example 203]"
  chromatographic logP: 2.43
- compound: "Cc1cc(Cl)cc(C(=O)NC(C)C2CC2)c1NC(=O)c1cc(Cn2ncc(C(F)(F)C(F)(F)F)n2)nn1-c1ncccc1Cl (centres unmarked) [Example 351]"
  chromatographic logP: 4.21
- compound: "Cc1cc(Cl)cc(C(=O)NC(C)C)c1NC(=O)c1cc(Cn2nc(C(F)(F)F)c(C(F)(F)F)n2)nn1-c1ncccc1Cl [Example 409]"
  chromatographic logP: 4.23
- compound: "Cc1cc(Cl)cc(C(=O)NC2CCC2)c1NC(=O)c1cc(Cn2ncc(C(F)(F)F)n2)nn1-c1ncccc1Cl [Example 142]"
  chromatographic logP: 3.64
- compound: "CNC(=O)c1cc(Cl)cc(C)c1NC(=O)c1cc(Cn2cc(-c3ccc(Cl)cc3)nn2)nn1-c1ncccc1Cl [Example 17]"
  chromatographic logP: 3.57
- compound: "Cc1cc(C#N)cc(C(=O)NC(C)C)c1NC(=O)c1cc(Cn2cc(C(F)(F)C(F)(F)F)nn2)nn1-c1ncccc1Cl [Example 320]"
  chromatographic logP: 3.11
- compound: "CCNC(=O)c1cc(Cl)cc(C)c1NC(=O)c1cc(Cn2cc(C(F)(F)F)nn2)nn1-c1ncccc1Cl [Example 189]"
  chromatographic logP: 2.9
- compound: "Cc1cc(I)cc(C(=O)NC(C)(C)C)c1NC(=O)c1cc(Cn2ncc(C(F)(F)F)n2)nn1-c1ncccc1Cl [Example 162]"
  chromatographic logP: 4.11
- compound: "CC(NC(=O)c1cc(Cl)cc(Cl)c1NC(=O)c1cc(Cn2ncc(C(F)(F)F)n2)nn1-c1ncccc1Cl)C1CC1 (centres unmarked) [Example 147]"
  chromatographic logP: 3.73
- compound: "Cc1cc(C#N)cc(C(=O)NC(C)C)c1NC(=O)c1cc(Cn2cc(C(F)(F)F)nn2)nn1-c1ncccc1Cl [Example 181]"
  chromatographic logP: 2.67
- compound: "Cc1cc(Cl)cc(C(=O)NC(C)(C)C)c1NC(=O)c1cc(Cn2nc(C(F)(F)F)c(C(F)(F)F)n2)nn1-c1ncccc1Cl [Example 393]"
  chromatographic logP: 4.59
- compound: "CNC(=O)c1cc(Cl)cc(C)c1NC(=O)c1cc(Cn2nc3ccc(C)cc3n2)nn1-c1ncccc1Cl [Example 73]"
  chromatographic logP: 3.05
- compound: "Cc1cc(I)cc(C(=O)NC2CC2)c1NC(=O)c1cc(Cn2ncc(C(F)(F)F)n2)nn1-c1ncccc1Cl [Example 159]"
  chromatographic logP: 3.45
- compound: "CCNC(=O)c1cc(Cl)cc(C)c1NC(=O)c1cc(Cn2cc(C(F)(F)C(F)(F)F)nn2)nn1-c1ncccc1Cl [Example 302]"
  chromatographic logP: 3.26

====

# method: log P determination by HPLC on reversed-phase columns (EEC Directive 79/831 Annex V.A8)
# Format: physicochemical
# condition: pH 2.7

- compound: "Cc1cc(I)cc(C(=O)NC(C)C)c1NC(=O)c1cc(Cn2ncc(C(F)(F)C(F)(F)F)n2)nn1-c1ncccc1Cl"
  chromatographic logP: 4.15
- compound: "Cc1cc(F)cc(C(=O)NC(C)(C)C)c1NC(=O)c1cc(Cn2ncc(C(F)(F)F)n2)nn1-c1ncccc1Cl"
  chromatographic logP: 4.02
- compound: "CNC(=O)c1cc(Cl)cc(C)c1NC(=O)c1cc(Cn2nnc3cc(C)ccc32)nn1-c1ncccc1Cl"
  chromatographic logP: 2.63
- compound: "Cc1cc(Cl)cc(C(=O)NC(C)(C)C)c1NC(=O)c1cc(Cn2ncc(C(F)(F)F)n2)nn1-c1ncccc1Cl"
  chromatographic logP: 3.85
- compound: "Cc1cc(I)cc(C(=O)NC(C)C)c1NC(=O)c1cc(Cn2cc(C(F)(C(F)(F)F)C(F)(F)F)nn2)nn1-c1ncccc1Cl"
  chromatographic logP: 4.09
- compound: "O=C(NC1CC1)c1cc(Cl)cc(Cl)c1NC(=O)c1cc(Cn2ncc(C(F)(C(F)(F)F)C(F)(F)F)n2)nn1-c1ncccc1Cl"
  chromatographic logP: 3.92
- compound: "CNC(=O)c1cc(Cl)cc(Cl)c1NC(=O)c1cc(Cn2cc(C(F)(F)F)nn2)nn1-c1ncccc1Cl"
  chromatographic logP: 2.59
- compound: "Cc1cc(C#N)cc(C(=O)NC2CCC2)c1NC(=O)c1cc(Cn2ncc(C(F)(F)F)n2)nn1-c1ncccc1Cl"
  chromatographic logP: 3.23
- compound: "Cc1cc(I)cc(C(=O)NC2CC2)c1NC(=O)c1cc(Cn2ncc(C(F)(F)C(F)(F)F)n2)nn1-c1ncccc1Cl"
  chromatographic logP: 3.86
- compound: "Cc1cc(C#N)cc(C(=O)NC(C)(C)C)c1NC(=O)c1cc(Cn2nnc3cc([N+](=O)[O-])ccc32)nn1-c1ncccc1Cl"
  chromatographic logP: 3.03
- compound: "CNC(=O)c1cc(C#N)cc(C)c1NC(=O)c1cc(Cn2ncc(C(C)C)n2)nn1-c1ncccc1Cl"
  chromatographic logP: 2.58
- compound: "CNC(=O)c1cc(C#N)cc(C)c1NC(=O)c1cc(Cn2cc(C(C)C)nn2)nn1-c1ncccc1Cl"
  chromatographic logP: 2.03
- compound: "CNC(=O)c1cc(C#N)cc(C)c1NC(=O)c1cc(Cn2cc(-c3ccc(F)cc3)nn2)nn1-c1ncccc1Cl"
  chromatographic logP: 2.41
- compound: "CCNC(=O)c1cc(I)cc(C)c1NC(=O)c1cc(Cn2cc(C(F)(F)C(F)(F)F)nn2)nn1-c1ncccc1Cl"
  chromatographic logP: 3.49
- compound: "CNC(=O)c1cc(C#N)cc(C)c1NC(=O)c1cc(Cn2cc(C(F)(F)F)nn2)nn1-c1ncccc1Cl"
  chromatographic logP: 2.28
- compound: "Cc1cc(C#N)cc(C(N)=O)c1NC(=O)c1cc(Cn2nc(C(F)(F)F)c(C(F)(F)F)n2)nn1-c1ncccc1Cl"
  chromatographic logP: 3.21
- compound: "CNC(=O)c1cc(Cl)cc(C)c1NC(=O)c1cc(Cn2nc3ccccc3n2)nn1-c1ncccc1Cl"
  chromatographic logP: 2.75
- compound: "CNC(=O)c1cc(Cl)cc(C)c1NC(=O)c1cc(Cn2cc(C(F)(C(F)(F)F)C(F)(F)F)nn2)nn1-c1ncccc1Cl"
  chromatographic logP: 3.36
- compound: "Cc1cc(C#N)cc(C(=O)NC2CC2)c1NC(=O)c1cc(Cn2ncc(C(F)(F)C(F)(F)F)n2)nn1-c1ncccc1Cl"
  chromatographic logP: 3.25
- compound: "Cc1cc(C#N)cc(C(=O)NC(C)C)c1NC(=O)c1cc(Cn2nc(C(F)(F)F)c(C(F)(F)F)n2)nn1-c1ncccc1Cl"
  chromatographic logP: 3.84
- compound: "CC(C)NC(=O)c1cc(Cl)cc(Cl)c1NC(=O)c1cc(Cn2cc(C(F)(C(F)(F)F)C(F)(F)F)nn2)nn1-c1ncccc1Cl"
  chromatographic logP: 3.79
- compound: "CNC(=O)c1cc(Cl)cc(C)c1NC(=O)c1cc(Cn2ncc(C(F)(F)F)n2)nn1-c1ncccc1Cl"
  chromatographic logP: 2.99
- compound: "Cc1cc(Cl)cc(C(=O)NC(C)C2CC2)c1NC(=O)c1cc(Cn2cc(C(F)(F)C(F)(F)F)nn2)nn1-c1ncccc1Cl (stereo not drawn)"
  chromatographic logP: 3.79
- compound: "Cc1cc(Cl)cc(C(=O)NC(C)C)c1NC(=O)c1cc(Cn2cc(C(F)(F)F)nn2)nn1-c1ncccc1Cl"
  chromatographic logP: 3.06
- compound: "CNC(=O)c1cc(C#N)cc(C)c1NC(=O)c1cc(Cn2nnc3cc(Cl)c(Cl)cc32)nn1-c1ncccc1Cl"
  chromatographic logP: 2.96
- compound: "Cc1cc(Br)cc(C(=O)NC(C)C2CC2)c1NC(=O)c1cc(Cn2ncc(C(F)(F)F)n2)nn1-c1ncccc1Cl (stereo not drawn)"
  chromatographic logP: 3.87
- compound: "CNC(=O)c1cc(C#N)cc(C)c1NC(=O)c1cc(Cn2cc(-c3cccc(Cl)c3)nn2)nn1-c1ncccc1Cl"
  chromatographic logP: 2.86

Origin of the recorded values: patent US8536202B2
